# credit: PubChem BioAssay AID1490

Quick reference for largest response in the series, negative = inhibition among some compounds
# measurement_target: 4'-phosphopantetheinyl transferase ffp (Bacillus subtilis) (UniProt Q9F4F7)
# experiment: qHTS Assay for Inhibitors of Bacillus subtilis Sfp phosphopantetheinyl transferase (PPTase);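 also: the enzyme is Sfp with the accession as filed and its product quenches rhodamine fluorescence; 0% = enzyme reaction without inhibitor and -100% = no enzyme wells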
# condition_set: Biochemical Sfp PPTase activity
The whole screen tested about 310,000 compounds, of which about 11,000 (3.5%) were called active. Inconclusive results (about 4%) are left out. Many of the other results were omitted from the sample, so actives are more common in it than they were.
A number alone suffices; assume %.

[
  {
    "compound": "COc1cccc(CNC(=O)CN(C)S(=O)(=O)c2ccc3c(c2)c(=O)n(C)c(=O)n3C)c1",
    "assay_value": -4.3
  }
]

# input Indicate its recorded largest response in the series, negative = inhibition; the compound in question is CCOc1ccc(N2C(=O)CC(N(O)c3ccccc3)C2=O)cc1 (stereo unspecified)
# output -14.7

# input Indicate its recorded largest response in the series, negative = inhibition; the compound in question is CCOC(=O)c1ccc(N2C(=O)CC(N(C)Cc3ccccc3)C2=O)cc1 (stereo unspecified)
# output 16.2

# input Indicate its recorded largest response in the series, negative = inhibition; the compound in question is `O=C(Nc1ccc2nccnc2c1)c1ccco1`
# output 15.4

# input Indicate its recorded largest response in the series, negative = inhibition; the compound in question is `CC(C)(C)c1ccc(NC(=O)NCc2ccco2)cc1`
# output 8.16

# input Indicate its recorded largest response in the series, negative = inhibition; the compound in question is `COc1ccc2[nH]cc(CCNc3ncnc4ccc(-c5ccc(C(=O)N(C)C)cc5)cc34)c2c1`
# output -5.41

# input Indicate its recorded largest response in the series, negative = inhibition; the compound in question is `O=S(=O)(c1cccc(Cn2nnc(-c3ccc(F)cc3)n2)c1)N1CCOCC1`
# output 3.33

# input Indicate its recorded largest response in the series, negative = inhibition; the compound in question is `COc1cccc(S(=O)(=O)NCc2ccc(C(=O)NCc3ccccn3)cc2)c1`
# output 12.9

# input Indicate its recorded largest response in the series, negative = inhibition; the compound in question is `Cc1cnc(C(=O)OCc2c(C)cc(C(C)(C)C)cc2C)cn1`
# output -9.1

# input Indicate its recorded largest response in the series, negative = inhibition; the compound in question is `S=c1[nH]nc(COc2ccccc2)n1-c1ccccc1`
# output 21.2

# input Indicate its recorded largest response in the series, negative = inhibition; the compound in question is `O=C(NCc1ccccn1)c1cc(Br)ccc1Cl`
# output -2.95
